EC50 values by entry
- TARGET UNDER TEST: T1, full-length ECD of human IGSF11 fused to murine Fc (human, UniProt Q5DX21 23-241)
- T1 construct: also called Fc-fusion IGSF11 ECD; not shown: murine Fc
- T1 sequence: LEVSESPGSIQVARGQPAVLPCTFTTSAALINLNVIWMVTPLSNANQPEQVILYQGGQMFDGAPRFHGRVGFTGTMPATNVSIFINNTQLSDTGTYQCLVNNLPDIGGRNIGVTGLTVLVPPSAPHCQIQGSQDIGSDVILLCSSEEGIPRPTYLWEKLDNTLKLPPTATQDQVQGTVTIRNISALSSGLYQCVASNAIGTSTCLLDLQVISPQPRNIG
- ASSAY METHOD TEXT: IgG ELISA;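 note: ELISA binding of IgG antibodies to plate-coated IGSF11 Fc-fusion proteins (full-length ECD, IgV or IgC2 domain), detected via HRP-labelled anti-human IgG with TMB development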

>  <BINDER>
C-010 (IgG1 format) (antibody, V domains shown) VH: QVQLVQSGAEVKKPGSSVKVSCKASGGTFSSYAISWVRQAPGQGLEWMGGIIPIFGTANYAQKFQGRVTITADESTSTAYMELSSLRSEDTAVYYCARGYGEYYPAFDVWGQGTLVTVSS VL: SYELTQPPSVSVSPGQTASITCSGDKLGDKYASWYQQKPGQSPVLVIYQDSKRPSGIPERFSGSNSGNTATLTISGTQAEDEADYYCASYAHTHSTWVFGGGTKLTVL

>  <EC50>
20 to 100 nM

$$$$
>  <BINDER>
C-011 (IgG1 format) (antibody, V domains shown) VH: QVQLVQSGAEVKKPGSSVKVSCKASGGTFSSYAISWVRQAPGQGLEWMGGIIPIFGTANYAQKFQGRVTITADESTSTAYMELSSLRSEDTAVYYCARHSTPSFLQYWGQGTLVTVSS VL: SYELTQPPSVSVSPGQTASITCSGDKLGDKYASWYQQKPGQSPVLVIYQDSKRPSGIPERFSGSNSGNTATLTISGTQAEDEADYYCAVYPAHASARWVFGGGTKLTVL

>  <EC50>
< 1 nM

$$$$
>  <BINDER>
C-008 (IgG1 format) (antibody, V domains shown) VH: EVQLLESGGGLVQPGGSLRLSCAASGFTFSSYAMSWVRQAPGKGLEWVSAISGSGGSTYYADSVKGRFTISRDNSKNTLYLQMNSLRAEDTAVYYCTTDNGHNRDWGQGTLVTVSS VL: ASVLTQPPSVSAAPGQKVTISCSGSSSNIGNNYVSWYQQLPGTAPKLLIYDNNKRPSGIPDRFSGSKSGTSATLGITGLQAEDEADYYCGTWTRSSGVFGGGTKLTVL

>  <EC50>
< 1 nM

$$$$

Now examine the next entry.
Give the reported EC50 for this binder. C-022 (IgG1 format) (antibody, V domains shown) VH: EVQLLESGGGLVQPGGSLRLSCAASGFTFSSYAMSWVRQAPGKGLEWVSAISGSGGSTYYADSVKGRFTISRDNSKNTLYLQMNSLRAEDTAAYYCARMAAGASWGTFDYWSQGTLVTVSS VL: DIQMTQSPSSLSASVGDRVTITCRASQSISSYLNWYQQKPGKAPKLLIYAASSLQSGVPSRFSGSGSGTDFTLTISSLQPEDFATYYCQQRSGSPLTFGQGTKVEIK
1 to 20 nM
